- procedure-text: Cell Titer Glo 2.0 cell viability assay
- conditions: human, K562 cells
# maps each entry to its GI50 at 72 h

| compound | GI50 at 72 h |
| --- | --- |
| Cc1cn2cc(-c3cc(=O)n4nc(N5CCN(C)CC5)sc4n3)cc(F)c2n1 | 1000 to 10000 nM |
| Cc1cn2cc(-c3cc4ncn(C5CCNC5)c(=O)c4s3)cc(F)c2n1 (stereo not shown) | 100 to 1000 nM |
| Cc1cn2nc(-c3cc4ncn(C5CCN(C)CC5)c(=O)c4s3)cc(C)c2n1 | 1000 to 10000 nM |
| Cc1cn2cc(-c3cc4ncn(C5CCN(C)CC5)c(=O)c4s3)cc(F)c2n1 | 100 to 1000 nM |

---

Reported pIC50 values are given for each entry in this list.
- System: Target C CJ mRNA
- procedure-text: Gene panel canonical junction qPCR assay, Target C
- Type: cell-based
- conditions: Homo sapiens, larger gene panel, read-out: Target C IC50 (decrease in CJ mRNA levels)
pIC50: −log10 of the molar value.
attribute-measured: pIC50

| smiles-string | attribute-measured | reported-value |
| --- | --- | --- |
| Cn1cc2cc(-n3cnc4nc(N5CCNCC5)sc4c3=O)ccc2n1 | pIC50 | < 5.00 |
| Cc1cn2nc(-c3cc4ccn(C5CCN(C)CC5)c(=O)c4s3)cc(C)c2n1 | pIC50 | 5.00 to 6.00 |
| Cc1cn2nc(-c3cc4ccn(C5CCNCC5)c(=O)c4s3)cc(C)c2n1 | pIC50 | 6.00 to 7.00 |
| Cc1cn2cc(-c3cc4ncn(C5CCNCC5)c(=O)c4s3)cc(F)c2n1 | pIC50 | 6.00 to 7.00 |
| Cc1cn2nc(-c3nc4sc(N5CCN(C)CC5)nc4c(=O)[nH]3)cc2c(C)n1 | pIC50 | < 5.00 |
| Cc1cc(-c2cc3cnn(C4CCNCC4)c(=O)c3s2)cc2cn(C)nc12 | pIC50 | 6.00 to 7.00 |
| Cc1cn2cc(-c3cc(=O)n4cc(N5CCNC6(CC6)C5)sc4n3)cc(F)c2n1 | pIC50 | < 5.00 |

---

- Tested on: HTT mRNA
- procedure-text: Splicing RT-qPCR assay, HTT canonical (CJ) and alternative (AJ) junction mRNA
- Format: cell-based
- conditions: Homo sapiens, decrease in CJ mRNA, A673 or K562 cells, 24 hours treatment

| compound | IC50 |
| --- | --- |
| Cc1cn2cc(-c3cc4ccn(C5CCN(C)CC5)c(=O)c4s3)cc(F)c2n1 [Compound 808] | 100 to 1000 nM |
| Cn1cc2cc(-c3cc4ncn(C5CCNCC5)c(=O)c4s3)cc(C#N)c2n1 [Compound 259] | 1000 to 10000 nM |
| Cc1cn2cc(-c3nn4c(=O)cc(N5CCNC6(CC6)C5)nc4s3)cc(F)c2n1 [Compound 216] | 1000 to 10000 nM |
| Cc1nc(-c2nc3cnn(C4CCNCC4)c(=O)c3s2)cc2cn(C)nc12 [Compound 811] | 1000 to 10000 nM |

---

- procedure-text: Cell Titer Glo 2.0 cell viability assay
- conditions: human, K562 cells

| compound | GI50 at 72 h |
| --- | --- |
| Cc1cn2cc(-c3cn4c(=O)cc(N5CCNC6(CC6)C5)nc4s3)cc(F)c2n1 | 1 to 10 µM |
| Cc1cn2nc(-c3nc4sc(N5CCN(C)CC5)nc4c(=O)[nH]3)cc2c(C)n1 | > 10 µM |
| Cc1cn2nc(-c3cc4ncn(C5CCNCC5)c(=O)c4s3)cc(C)c2n1 | 1 to 10 µM |
| Cc1cn2nc(-c3cc4ccn(C5CCNCC5)c(=O)c4s3)cc(C)c2n1 | 0.1 to 1 µM |
| Cn1cc2cc(-c3cc4ncn(C5CCNCC5)c(=O)c4s3)c(F)cc2n1 | 1 to 10 µM |
| Cc1cn2nc(-c3cn4c(=O)cc(N5CCNC6(CC6)C5)nc4s3)cc(C)c2n1 | 1 to 10 µM |
| Cc1nc(-c2nc3cnn(C4CCNCC4)c(=O)c3s2)cc2cn(C)nc12 | 1 to 10 µM |
| Cc1cn2cc(-c3cc4ncn(C5CCCNCC5)c(=O)c4s3)cc(F)c2n1 (stereo not drawn) | 0.1 to 1 µM |
| Cc1cn2nc(-c3nc4cnn(C5CCNCC5)c(=O)c4s3)cc(C)c2n1 | 0.1 to 1 µM |
| Cc1cn2cc(-c3cc4ncn([C@H]5CCNC[C@@H]5F)c(=O)c4s3)cc(F)c2n1 (relative stereo) | > 10 µM |
| Cc1cn2cc(-c3nc4ncn(C5CCNCC5)c(=O)c4s3)cc(F)c2n1 | 0.1 to 1 µM |
| Cc1cn2cc(-c3nn4c(=O)cc(N5CCN(C)C6(CC6)C5)nc4s3)cc(F)c2n1 | 1 to 10 µM |

---

- System: HTT mRNA
- procedure-text: Splicing RT-qPCR assay, HTT canonical (CJ) and alternative (AJ) junction mRNA
- Format: cell-based
- conditions: Homo sapiens, increase in AJ mRNA, A673 or K562 cells, 24 hours treatment
Reported AC50 values are given for each entry in this list.

| compound | AC50 |
| --- | --- |
| Cc1cc(-c2cc(=O)n3nc(N4CCN(C)CC4)sc3n2)cc2cn(C)nc12 [Compound 157] | > 10000 nM |
| Cc1cn2nc(-c3cn4c(=O)cc(N5CCNC6(CC6)C5)nc4s3)cc(C)c2n1 [Compound 212] | 1000 to 10000 nM |
| Cc1cn2cc(-c3nn4c(=O)cc(N5CCNC6(CC6)C5)nc4s3)cc(F)c2n1 [Compound 216] | 1000 to 10000 nM |
| Cc1nc(-c2cc3ncn(C4CCNCC4)c(=O)c3s2)cc2cn(C)nc12 [Compound 271] | 1000 to 10000 nM |
| Cc1cn2nc(-c3cc(=O)n4cc(N5CCNC6(CC6)C5)sc4n3)cc(C)c2n1 [Compound 211] | 1000 to 10000 nM |
| Cc1cn2cc(-c3cc4ncn(C5CCCNCC5)c(=O)c4s3)cc(F)c2n1 (stereo not shown) [Compound 275] | 100 to 1000 nM |
| Cc1cn2nc(-c3cc4ncn(C5CCNCC5)c(=O)c4s3)cc2c(C)n1 [Compound 262] | 100 to 1000 nM |
| CN1CCN(c2nc3ncn(-c4ccc5nn(C)cc5c4)c(=O)c3s2)CC1 [Compound 182] | 1000 to 10000 nM |
| Cc1nc(-c2nc3cnn(C4CCNCC4)c(=O)c3s2)cc2cn(C)nc12 [Compound 811] | 1000 to 10000 nM |
| Cc1cn2cc(-c3cc4ncn([C@H]5CNCC[C@@H]5O)c(=O)c4s3)cc(F)c2n1 (relative stereo) [Compound 281] | 1000 to 10000 nM |
| Cc1cn2cc(-c3cn4c(=O)cc(N5CCNCC5)nc4s3)cc(F)c2n1 [Compound 213] | > 10000 nM |
| Cc1cc(-c2cc3ccn(C4CCNCC4)c(=O)c3s2)cc2cn(C)nc12 [Compound 805] | 100 to 1000 nM |
| Cc1cn2cc(-c3cc4ccn(C5CCNCC5)c(=O)c4s3)cc(F)c2n1 [Compound 804] | 100 to 1000 nM |

---

- Tested on: HTT mRNA
- procedure-text: Splicing RT-qPCR assay, HTT canonical (CJ) and alternative (AJ) junction mRNA
- Type: cell-based
- conditions: Homo sapiens, decrease in CJ mRNA, A673 or K562 cells, 24 hours treatment
attribute-measured: IC50

| smiles-string | attribute-measured | reported-value |
| --- | --- | --- |
| Cc1cn2cc(-c3cc4ncn(C5CCNCC5)c(=O)c4s3)cc(F)c2n1 | IC50 | < 0.1 µM |
| Cc1cn2cc(-c3nc4cnn(C5CCNCC5)c(=O)c4s3)nc(C)c2n1 | IC50 | > 10 µM |
| Cc1cn2cc(-c3cc4ncn(N5CCNCC5)c(=O)c4s3)cc(F)c2n1 | IC50 | 0.1 to 1 µM |
| Cc1cn2nc(-c3cc(=O)n4cc(N(C)C5CC(C)(C)NC(C)(C)C5)sc4n3)cc(C)c2n1 | IC50 | 1 to 10 µM |

---

- Test system: SMN2 CJ mRNA
- procedure-text: Gene panel canonical junction qPCR assay, SMN2
- Type: cell-based
- conditions: Homo sapiens, larger gene panel, read-out: SMN2 IC50 (decrease in CJ mRNA levels)
pIC50: −log10 of the molar value.
Readings of pIC50 for the listed molecules

| molecule | tgt | pIC50 |
| --- | --- | --- |
| Cc1cn2nc(-c3cc(=O)n4cc(N(C)C5CC(C)(C)NC(C)(C)C5)sc4n3)cc(C)c2n1 | SMN2 CJ mRNA | 5.00 to 6.00 |
| Cc1cc(-c2cc3cnn(C4CCNCC4)c(=O)c3s2)cc2cn(C)nc12 | SMN2 CJ mRNA | > 7.00 |
| Cc1cn2nc(-c3nc4sc(N5CCNCC5)nc4c(=O)[nH]3)cc2c(C)n1 | SMN2 CJ mRNA | 6.00 to 7.00 |
| Cc1cn2cc(-c3cc4ncn(C5CCCNCC5)c(=O)c4s3)cc(F)c2n1 (stereo not shown) | SMN2 CJ mRNA | > 7.00 |
| Cc1cn2cc(-c3cc4ncn(C5CCNC5)c(=O)c4s3)cc(F)c2n1 (stereo not shown) | SMN2 CJ mRNA | 6.00 to 7.00 |
| Cc1cn2cc(-c3cc4ncn([C@H]5CNCC[C@@H]5O)c(=O)c4s3)cc(F)c2n1 (relative stereo) | SMN2 CJ mRNA | 5.00 to 6.00 |
| Cc1cn2nc(-c3nc4cnn(C5CCNCC5)c(=O)c4s3)cc(C)c2n1 | SMN2 CJ mRNA | 6.00 to 7.00 |
| Cc1cn2nc(-c3cc4ncn(C5CCNCC5)c(=O)c4s3)cc(C)c2n1 | SMN2 CJ mRNA | > 7.00 |
| Cn1cc2cc(-n3cnc4nc(N5CCNCC5)sc4c3=O)ccc2n1 | SMN2 CJ mRNA | < 5.00 |
| Cc1cn2cc(-c3cc4ncn([C@H]5CCNC[C@@H]5F)c(=O)c4s3)cc(F)c2n1 (relative stereo) | SMN2 CJ mRNA | > 7.00 |
| Cc1cn2nc(-c3cc4ccn(C5CCNCC5)c(=O)c4s3)cc(C)c2n1 | SMN2 CJ mRNA | 6.00 to 7.00 |
| Cc1cc(-c2nc3ncn(C4CCNCC4)c(=O)c3s2)cc2cn(C)nc12 | SMN2 CJ mRNA | > 7.00 |
| Cc1cn2cc(-n3cnc4nc(N5CCNCC5)sc4c3=O)cc(C(F)(F)F)c2n1 | SMN2 CJ mRNA | < 5.00 |
